target: recombinant human DAO (diamine oxidase) (Homo sapiens, UniProt P19801); construct: purchased R&D systems; experiment: Activity on recombinant human DAO, method similar to the VAP-1 assay; assay type: biochemical; conditions: substrate 1 mM putrescine; read-out: Inhibitory Activity (IC50, nM) DAO
Sequence (P19801 20-751): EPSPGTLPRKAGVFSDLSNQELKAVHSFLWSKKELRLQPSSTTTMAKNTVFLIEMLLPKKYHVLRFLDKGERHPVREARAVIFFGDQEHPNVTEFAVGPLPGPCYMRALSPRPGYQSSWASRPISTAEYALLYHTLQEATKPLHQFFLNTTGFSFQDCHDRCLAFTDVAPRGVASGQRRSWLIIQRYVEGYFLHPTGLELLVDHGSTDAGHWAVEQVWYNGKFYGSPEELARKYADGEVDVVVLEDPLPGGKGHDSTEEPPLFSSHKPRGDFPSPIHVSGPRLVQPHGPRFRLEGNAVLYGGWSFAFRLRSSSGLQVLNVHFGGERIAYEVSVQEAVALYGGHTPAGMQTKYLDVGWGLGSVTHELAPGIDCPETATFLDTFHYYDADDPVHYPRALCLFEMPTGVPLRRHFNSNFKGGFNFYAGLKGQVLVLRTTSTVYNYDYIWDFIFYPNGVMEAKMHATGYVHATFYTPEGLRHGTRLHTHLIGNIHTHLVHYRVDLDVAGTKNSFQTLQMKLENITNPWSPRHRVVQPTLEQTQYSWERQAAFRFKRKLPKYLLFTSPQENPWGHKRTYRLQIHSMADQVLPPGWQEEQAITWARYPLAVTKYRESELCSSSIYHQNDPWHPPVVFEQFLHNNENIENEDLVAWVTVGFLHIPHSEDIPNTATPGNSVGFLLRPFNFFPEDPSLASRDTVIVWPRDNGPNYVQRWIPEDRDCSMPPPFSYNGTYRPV
Counter-ions that a name gives are not always drawn.
Quantity kind: IC50 (nM)

# count of solved cases: 10
Cc1c(-c2ccc(Cn3cnn(C/C(=C/F)CN)c3=O)s2)ccc2c1NC(=O)CC2 :: 897
CCn1cc(-c2ccc3sc(Cn4cnn(C/C(=C/F)CN)c4=O)cc3c2)cn1 :: 1400
NC/C(=C\F)Cn1ncn(Cc2ccc(-c3ccc(CO)cc3)s2)c1=O :: 12000
Cc1nn(C)cc1-c1ccc(Cn2cnn(C/C(=C/F)CN)c2=O)s1 :: 1700
CSc1ncc(-c2ccc(Cn3cnn(C/C(=C/F)CN)c3=O)s2)cn1 [Example 56, hydrochloride] :: 40
COC(=O)c1cccc(-c2ccc(Cn3cnn(C/C(=C/F)CN)c3=O)s2)c1 [Example 11, hydrochloride] :: 1100
NC/C(=C\F)Cn1ncn(Cc2ccc(C#Cc3ccc4c(c3)CCC(=O)N4)s2)c1=O [Example 133, hydrochloride] :: 530
CNS(=O)(=O)c1cccc(-c2ccc(Cn3cnn(C/C(=C/F)CN)c3=O)s2)c1 [Example 8, hydrochloride] :: 520
NC/C(=C\F)Cn1ncn(Cc2ccc(-c3ccc4nsnc4c3)s2)c1=O :: 310
NC/C(=C\F)Cn1ncn(Cc2ccc(C#Cc3cnc4c(c3)NC(=O)CO4)s2)c1=O [Example 138, hydrochloride] :: 470

1. CN(C)S(=O)(=O)c1cccc(-c2ccc(Cn3cnn(C/C(=C/F)CN)c3=O)s2)c1
2. CN(C)S(=O)(=O)c1ccc(-c2ccc(Cn3cnn(C/C(=C/F)CN)c3=O)s2)cc1 [Example 9, hydrochloride]
Exam item: Choose between 1 and 2 : whose measured IC50 value is numerically larger? Choose, then provide that item's label.
Marked response: 1

----------
Biological target: recombinant human MAO-B (monoamine oxidase-B) (Homo sapiens, UniProt P27338)
Construct: purchased Sigma-Aldrich
Sequence (P27338 1-520): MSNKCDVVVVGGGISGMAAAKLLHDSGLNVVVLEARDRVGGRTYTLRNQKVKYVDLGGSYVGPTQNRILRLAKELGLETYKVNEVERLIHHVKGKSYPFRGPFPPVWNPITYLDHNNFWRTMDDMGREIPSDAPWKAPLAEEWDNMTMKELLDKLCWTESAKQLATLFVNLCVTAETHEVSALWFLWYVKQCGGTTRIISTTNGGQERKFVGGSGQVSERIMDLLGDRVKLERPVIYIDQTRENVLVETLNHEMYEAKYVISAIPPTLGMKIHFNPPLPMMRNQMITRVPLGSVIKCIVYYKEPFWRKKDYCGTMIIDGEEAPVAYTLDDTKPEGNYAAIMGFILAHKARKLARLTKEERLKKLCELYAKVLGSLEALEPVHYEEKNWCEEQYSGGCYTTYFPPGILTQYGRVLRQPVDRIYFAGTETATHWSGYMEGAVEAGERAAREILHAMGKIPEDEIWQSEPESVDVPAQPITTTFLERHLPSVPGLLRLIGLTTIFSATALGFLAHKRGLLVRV
Experiment: Activity on recombinant human MAO-B, method similar to the VAP-1 assay
Type: biochemical
Details: substrate 1 mM benzylamine; read-out: Inhibitory Activity (IC50, nM) MAO-B
Where a name gives a salt, the structure may show the parent alone.
Quantity kind: IC50 (nM)

CCn1cc(-c2ccc(Cn3cnn(C/C(=C/F)CN)c3=O)s2)cn1 [Example 153] :: 1900

A. CC1(C)Oc2cc(-c3ccc(Cn4cnn(C/C(=C/F)CN)c4=O)s3)ccc2NC1=O [Example 87]
B. COC(=O)c1ccc(-c2ccc(Cn3cnn(C/C(=C/F)CN)c3=O)s2)cc1F [Example 12, hydrochloride]
C. NC/C(=C\F)Cn1ncn(Cc2ccc(-c3ccc(OCC(F)(F)F)nc3)s2)c1=O [Example 47, hydrochloride]
D. NC/C(=C\F)Cn1ncn(Cc2ccc(-c3cccc(S(=O)(=O)N4CCCC4)c3)s2)c1=O [Example 28, hydrochloride]
E. NC/C(=C\F)Cn1ncn(Cc2ccc(-c3cc4c(c(C(F)(F)F)c3)NC(=O)CC4)s2)c1=O [Example 81]
Exam item: Please list these molecules in decreasing order of IC50. Answer format: list of labels, ordered as asked.
Marked response: A, C, E, D, B
(A: 2700 nM, C: 980 nM, E: 430 nM, D: 200 nM, B: 110 nM)

----------
target: recombinant human DAO (diamine oxidase) (Homo sapiens, UniProt P19801); construct: purchased R&D systems; assay: Activity on recombinant human DAO, method similar to the VAP-1 assay; assay type: biochemical; conditions: substrate 1 mM putrescine; read-out: Inhibitory Activity (IC50, nM) DAO
Structures can show the parent of a compound that is named as a salt.
Quantity kind: IC50 (nM)

NC/C(=C\F)Cn1ncn(CCc2ccc(-c3ccc(C(F)(F)F)nc3)s2)c1=O :: 61

a. NC/C(=C/F)Cn1ncn(Cc2ccc(-c3ccc4c(c3)OCO4)s2)c1=O [Example 60, hydrochloride]
b. Cn1cc(-c2ccc(Cn3cnn(C/C(=C/F)CN)c3=O)s2)ccc1=O
c. NC/C(=C\F)Cn1ncn(Cc2ccc(-c3ccn4ncnc4c3)s2)c1=O [Example 66, hydrochloride]
Exam item: Arrange the 3 compounds by rising IC50, starting with the smallest. List the labels in the requested order.
Marked response: c, b, a

----------
target: recombinant human DAO (diamine oxidase) (Homo sapiens); construct: purchased R&D systems; assay: Activity on recombinant human DAO, method similar to the VAP-1 assay; assay type: biochemical; conditions: substrate 1 mM putrescine; read-out: Inhibitory Activity (IC50, nM) DAO
Where a name gives a salt, the structure may show the parent alone.
Quantity kind: IC50 (nM)

NC/C(=C/F)Cn1ncn(Cc2ccc(Br)s2)c1=O :: 3020
CN1C(=O)Cc2cc(-c3ccc(Cn4cnn(C/C(=C/F)CN)c4=O)s3)cnc21 [Example 73, hydrochloride] :: 93
NC/C(=C\F)Cn1ncn(Cc2ccc(-c3ccc(-c4noc(C5CC5)n4)cc3)s2)c1=O [Example 35, hydrochloride] :: 67
NC/C(=C\F)Cn1ncn(Cc2ccc(-c3cnc4scnc4c3)s2)c1=O [Example 64, hydrochloride] :: 110
NC/C(=C\F)Cn1ncn(Cc2ccc(-c3cccc(-c4nnc[nH]4)c3)s2)c1=O :: 790

a. CS(=O)(=O)CCn1cc(-c2ccc(Cn3cnn(C/C(=C/F)CN)c3=O)s2)ccc1=O
b. NC/C(=C\F)Cn1ncn(Cc2ccc(C#Cc3cccnc3)s2)c1=O [Example 127, hydrochloride]
c. CCS(=O)(=O)c1ccc(-c2ccc(Cn3cnn(C/C(=C/F)CN)c3=O)s2)cc1
d. Cc1cscc1-c1ccc(Cn2cnn(C/C(=C/F)CN)c2=O)s1
Exam item: Arrange by IC50, high to low. I'd appreciate it if you listed the labels in the requested order.
Marked response: d, b, a, c
(d: 5300 nM, b: 910 nM, a: 450 nM, c: 230 nM)

A. Cc1cc(-c2ccc(Cn3cnn(C/C(=C/F)CN)c3=O)s2)cc2c1OCC(=O)N2 [Example 91, hydrochloride]
B. CN1C(=O)CCc2cc(-c3ccc(Cn4cnn(C/C(=C/F)CN)c4=O)s3)ccc21 [Example 79, hydrochloride]
Exam item: Just tell me: smaller IC50 value, A or B ? Indicate your choice by writing its label.
Marked response: B
(B: 210 nM, A: 340 nM)

A. NC/C(=C\F)Cn1ncn(Cc2ccc(-c3csc(CO)c3)s2)c1=O
B. NC/C(=C\F)Cn1ncn(Cc2ccc(-c3ccc(=O)n(C4CC4)c3)s2)c1=O
C. COc1ccc(-c2ccc(Cn3cnn(C/C(=C/F)CN)c3=O)s2)cc1OC [Example 16, hydrochloride]
D. NC/C(=C\F)Cn1ncn(Cc2ccc(-c3ccc4c(c3)CC(=O)N4)s2)c1=O [Example 69, hydrochloride]
Exam item: Sort (4 compounds) by IC50: min first. Please list each label once, in the requested order.
Marked response: B, D, C, A
(B: 710 nM, D: 1100 nM, C: 2800 nM, A: 6800 nM)

P. COc1ccc(C#Cc2ccc(Cn3cnn(C/C(=C/F)CN)c3=O)s2)cc1 [Example 126, hydrochloride]
Q. NC/C(=C\F)Cn1ncn(Cc2ccc(-c3cccc(-c4ncon4)c3)s2)c1=O
Exam item: Which record shows the lower IC50: the first, P , or the second, Q ? Respond using the label that marks the chosen record.
Marked response: Q

----------
target: recombinant human MAO-A (monoamine oxidase-A) (Homo sapiens); construct: purchased Sigma-Aldrich; test: Activity on recombinant human MAO-A, method similar to the VAP-1 assay; type: biochemical; conditions: substrate 0.5 mM tyramine; read-out: Inhibitory Activity (IC50, nM) MAO-A
Sequence (P21397 whole entry): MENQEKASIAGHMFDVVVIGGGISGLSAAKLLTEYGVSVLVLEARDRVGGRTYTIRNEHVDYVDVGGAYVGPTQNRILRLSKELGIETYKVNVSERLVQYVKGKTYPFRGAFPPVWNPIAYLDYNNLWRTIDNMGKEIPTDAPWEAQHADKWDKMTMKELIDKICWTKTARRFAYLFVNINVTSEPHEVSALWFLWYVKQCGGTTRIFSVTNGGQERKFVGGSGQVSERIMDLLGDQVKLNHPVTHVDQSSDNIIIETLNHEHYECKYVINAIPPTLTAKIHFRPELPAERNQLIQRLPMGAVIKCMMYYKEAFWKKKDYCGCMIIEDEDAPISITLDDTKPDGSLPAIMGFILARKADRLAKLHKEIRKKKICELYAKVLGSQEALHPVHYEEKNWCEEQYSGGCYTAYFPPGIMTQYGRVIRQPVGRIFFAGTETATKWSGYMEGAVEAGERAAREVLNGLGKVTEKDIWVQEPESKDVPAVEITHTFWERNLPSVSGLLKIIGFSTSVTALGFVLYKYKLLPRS
Counter-ions that a name gives are not always drawn.
Quantity kind: IC50

COc1ccc(-c2ccc(Cn3cnn(C/C(=C/F)CN)c3=O)s2)cn1 [Example 45, hydrochloride] :: > 100000 nM
NC/C(=C\F)Cn1ncn(Cc2ccc(-c3cc4c(cc3F)OCC(=O)N4)s2)c1=O [Example 93, hydrochloride] :: 54000 nM
NC/C(=C\F)Cn1ncn(Cc2ccc(-c3ccc4nsnc4c3)s2)c1=O :: > 100000 nM
NC/C(=C\F)Cn1ncn(Cc2ccc(C#Cc3cccc(N)c3)s2)c1=O [Example 125, hydrochloride] :: > 100000 nM
CCn1cc(-c2ccc(Cn3cnn(C/C(=C/F)CN)c3=O)s2)ccc1=O :: > 100000 nM
NC/C(=C\F)Cn1ncn(Cc2ccc(-c3ccc(C(=O)N4CCOCC4)cc3)s2)c1=O [Example 27, hydrochloride] :: > 100000 nM

Exam item: Give me measured IC50, please, for this compound: `CS(=O)(=O)Nc1cccc(-c2ccc(Cn3cnn(C/C(=C/F)CN)c3=O)s2)c1`
Marked response: > 100000 nM

Exam item: Identify measured IC50 corresponding to NC/C(=C\F)Cn1ncn(Cc2ccc(-c3c[nH]c4ncccc34)s2)c1=O [Example 115, hydrochloride]
Marked response: > 100000 nM

Exam item: // Input: `NC/C(=C\F)Cn1ncn(Cc2ccc(-c3cn[nH]c3)s2)c1=O` . Output its IC50 only.
Marked response: 13000 nM

Exam item: Input `CS(=O)(=O)c1ccc(-c2ccc3sc(Cn4cnn(C/C(=C/F)CN)c4=O)cc3c2)cc1` , output reported IC50.
Marked response: > 100000 nM

Exam item: Provide IC50 value for the following compound: NC/C(=C\F)Cn1ncn(Cc2ccc(-c3cnc4scnc4c3)s2)c1=O [Example 64, hydrochloride]
Marked response: 6700 nM
